Please provide measured GI50 for the entries that follow.
Tested on: TK-10
Assay: NCI tumour cell line growth inhibition, 48 h
Activity calls are given as the source filed them. Rule as the data show it: active = GI50 up to about 1.1 µM and inactive = higher.

Recall and state the measured GI50 for C/C=C(/C)C(=O)O[C@@H]1c2c(C)coc2C[C@H]2CC[C@H](O)[C@H](C)[C@]21C .
64.6 µM (inactive)

For the molecule CC1=C(c2cc(C(=O)Nc3ccc(Cl)c(Cl)c3)nc(N)n2)Sc2ccccc2N1 , give its reported GI50.
> 100 µM (inactive)

Could you please provide reported GI50 for COC1/C=C/C(C)C(C(C)C(OC)C(C)CCC(=O)C(C)C(C/C=C/N(C)C=O)OC)OC(=O)/C=C/C=C(\C)CC(OC)C(OC)C2=CC(=O)O[C@@H](C(C)C(OC)CC(OC)/C=C/C(C)C(O)C1)[C@H]2O (some centres not stated) ? Thanks!
0.0745 µM (active)

Identify measured GI50 associated with O=C1OC(c2ccccc2)=NC1c1ccccc1 (configuration not stated)
> 100 µM (inactive)

Note GI50 for the molecule shown: CC1(C)[C@@H]2C[C@H]1C(Cc1cccc(C[C@H]3c4cc(-c5ccccn5)ncc4[C@H]4C[C@@H]3C4(C)C)c1)c1cc(-c3ccccn3)ncc12 (some centres not stated)
2.44 µM (inactive)

For Oc1c(Br)c(-c2ccccc2)nc2ccccc12 , write its GI50.
57.8 µM (inactive)

Identify GI50 associated with the molecule c1ccc2c(c1)OCCOCCOc1ccccc1OCCO2
45.6 µM (inactive)

State its GI50 for this molecule: CC(=O)OCc1cc2c(s1)C(=O)c1sccc1C2=O
1.79 µM (inactive)

Give recorded GI50. O=C(O)c1ccccc1C(=O)Nn1cnnc1
> 100 µM (inactive)

Indicate its recorded GI50; the molecule in question is Cc1ccc(-c2cc(-c3c(C)nn(C)c(=O)c3N)n[nH]2)cc1
> 100 µM (inactive)

Return GI50 (reported value) for this molecule: O=C(CSc1nnc[nH]1)C[P+](c1ccccc1)(c1ccccc1)c1ccccc1
> 100 µM (inactive)

# return recorded GI50 for entry O=C(O)CCCc1ccc2c(c1)C(C(=O)O)CC2 (configuration not stated)
> 100 µM (inactive)

---

System: EKVX
Assay: NCI tumour cell line growth inhibition, 48 h
Calls of active or inactive are those of the source. Rule as the data show it: active = GI50 up to about 1.1 µM and inactive = higher.
Please state which outcome applies, choosing from active, inactive

Could you kindly confirm the outcome this assay logged for CC(O)(C#N)CC(O)(C(F)(F)Cl)C(F)(F)Cl (stereo not given) ?
inactive

What classification did O=[N+]([O-])c1cc2c(c([N+](=O)[O-])c1)NCc1ccccc1O2 end up with in this test?
inactive

Dear all, I need the recorded test outcome for Cc1nc(=O)[nH]c2c1C(=O)N(C(C)C)C(NC(C)C)S2 (stereo not given) , thank you.
inactive

Just curious, what result did CC(=O)OC(CCC1(C)OC1COc1ccc(CCNC(=O)C=C(C)C)cc1)C(C)(C)OC(C)=O (stereo not given) get here?
inactive

// return assay outcome for C=CCN1C[C@H](C)N([C@H](c2ccc(C(=O)NC(CC)CC)cc2)c2cccc(OC)c2)C[C@H]1C
inactive

Could you check what this test reported for O=C1NC(N2CCOCC2)=N/C1=C\c1ccccc1 ?
inactive

Give the logged outcome of this assay for the following molecule: Cc1cc(NC(=O)C(=O)Cc2nc3ccccc3s2)ccc1Cl
inactive

What was the test verdict on Cc1cc(NS(=O)(=O)c2ccc(NC(=O)c3cccn4c(=O)c5ccccc5nc34)cc2)no1 ?
inactive

For CC(C)c1ccc(O)c(=O)cc1 [GAMMA-THUJAPLICIN] , what call appears in the results of this test?
inactive

Given CN1c2ccccc2C2c3c(O)ccc(O)c3C=C([N+](=O)[O-])C21 (stereo not given) , state the outcome it received in this test.
inactive

// return assay outcome for O=NN(CCCl)C(=O)NC1CCC(CC2CCC(NC(=O)N(CCCl)N=O)CC2)CC1 (stereo not given)
inactive

Could you check what this test reported for O=C(Nc1nc(C23CC4CC(CC(C4)C2)C3)cs1)c1cc2ccc(O)cc2oc1=O ?
inactive

What did the test return for NP(=O)(OCC1=CC(=O)c2ccccc2C1=O)N(CCBr)CCBr (stereo not given) ?
inactive

Test call, this molecule: Oc1ccc(/N=C/c2ccc(/C=N/c3ccc(O)cc3)cc2)cc1
inactive

Each molecule tested received a call. Report the one for CC(=O)CCC[C@H](C)[C@@H](O)[C@@H]1O[C@H]([C@@]2(C)CCC(=O)O2)C[C@H]1C(=O)O .
inactive

Could you kindly confirm the outcome this assay logged for Cc1ccc(NC(=O)C2C(=O)N(c3ccc(C)c(C)c3)C(=O)C2N=N)cc1C (stereo not given) ?
inactive

Tell me the recorded outcome of this test for COC(=O)/C=C(\C(=O)OC)C1C(=O)Oc2c(C)c(=O)c3ccccc3n21 (stereo not given) .
inactive

Dear all, I need the recorded test outcome for CN(C)C(=O)c1nnsc1NN=O , thank you.
inactive

Test call, this molecule: COc1cc2cc(C(=O)Nc3cc4n(n3)-c3ccccc3C4)[nH]c2c(OC)c1OC
inactive

What call does the record list for CCN(CC)C1CC(O[C@H]2C[C@](O)(C(=O)CO)Cc3c(O)c4c(c(O)c32)C(=O)c2c(OC)cccc2C4=O)OC(C)C1O (stereo not given in full) ?
active
